The reported measurements were obtained from patent US20240299359A1.

- assay_info: 13-week repeated oral toxicity: weight measurement
- Format: in vivo, beagle
- test_parameters: 500 mg/kg repeated oral (G3), male, week 6, mean
reported_endpoint: Weight, Mean (kg)
Please give a number only; it is taken to be in kg.

Problem: Fill blank: measured Weight, Mean of the compound CN1C(=O)NC(=O)C1O (stereo not shown) [KBP-001] is ____.
Result: 10.1

---

- assay_info: 13-week repeated oral toxicity: weight measurement
- Type: in vivo, beagle
- test_parameters: 200 mg/kg repeated oral (G2), female, week 6, mean
reported_endpoint: Weight, Mean (kg)
The answer is to be given in kg; state only the numeric part.

Problem: Bench note: what Weight, Mean did CN1C(=O)NC(=O)C1O (stereo not shown) show?
Result: 9.4
